# Measured target: MAGL (Mus musculus, UniProt O35678)
# Sequence (O35678 whole entry): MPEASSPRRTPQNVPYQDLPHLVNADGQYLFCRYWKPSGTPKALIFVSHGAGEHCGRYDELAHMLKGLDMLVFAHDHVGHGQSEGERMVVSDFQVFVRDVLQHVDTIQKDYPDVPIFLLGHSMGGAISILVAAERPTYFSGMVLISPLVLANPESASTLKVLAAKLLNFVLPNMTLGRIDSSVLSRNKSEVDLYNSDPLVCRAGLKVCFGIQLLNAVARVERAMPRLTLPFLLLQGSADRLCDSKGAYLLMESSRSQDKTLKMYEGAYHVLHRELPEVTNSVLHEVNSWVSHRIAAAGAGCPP
# Measurement notes: In vitro competitive activity-based protein profiling (FP-Rh), mouse MAGL
# Assay type: biochemical
# Design: from tissue; host or cells: mouse brain membrane fraction
# Measurement context: Table 2, mouse proteome, 30 min preincubation at 37° C.
Recorded metric: IC50

>>> measured_result("CC(=O)N1CCN(c2cc(Cl)ccc2CN2CCN(C(=O)ON3C(=O)CCC3=O)CC2)CC1 [Example 115]")
"100 to 1000 nM"

Incoming: Quick one: IC50 of O=C(ON1C(=O)CCC1=O)N1CCN(Cc2ccc(Cl)cc2-n2cc(Cl)cn2)CC1 [Example 95] ?
Outgoing: < 100 nM

Incoming: Could you do the same for O=C(ON1C(=O)CCC1=O)N1CCN(Cc2ccc(-c3ccccc3)cc2N2CCOCC2)CC1 [Example 161] , please?
Outgoing: 100 to 1000 nM
